This collection of values is drawn from PubChem BioAssay (NCI).

system: TK-10 renal; assay: NCI-60 one-dose screen, 48 h; conditions: 10 µM unless noted
About 83,000 compounds went through this panel and 20% of them were active in at least one assay; those are over-represented in the sample as a whole. The source made the active and inactive calls. Rule for the calls: active = growth percent below 10; inactive = the rest.
A correct response names exactly one class from t = active, f = inactive

Use these answered entries as a reference point.
                                   compound  class
0        Nc1nnc(C(=O)c2cnc3n(c2=O)CCCCC3)s1      f
1  O=C(O)/C=C\C(=O)N1C/C(=C\c2ccccc2Cl)C(=O)/C(=C/c2ccccc2Cl)C1      t
2  O=C(Nc1cccc(Cl)c1)Oc1c(Br)c(Br)c(Br)c(Br)c1Br      f
3                     CC(=O)OCCCCCNc1ccccc1      f
4  O=C1NC(=S)NC(=O)C1=Cc1cccc(C=C2C(=O)NC(=S)NC2=O)c1      f
5  CNC(=O)NCC1OC(n2cnc3c(NC(=O)Nc4ccccc4)ncnc32)C(O[Si](C)(C)C(C)(C)C)C1O[Si](C)(C)C(C)(C)C (stereo not given)      f
6  O=C(Cc1ccc(/C=C/C(=O)c2ncc[nH]2)cc1)Nc1ccc(C(F)(F)F)cc1      f
7    COc1ccc(-c2cnc(N)nc2-c2ccc(OC)cc2O)cc1      f

Query: recorded result category for O=C1OC(=O)C2C1CC=CC2c1ccccc1 (stereo not given) in this test
f

Hi, do you know how Clc1ccc(C2CC(c3cccc(Nc4ccncc4)c3)=NN2c2cc(Cl)cc(Cl)c2)cc1 (stereo not given) came out in this test?
f
